# key: entry, value: viability at 24 h, 10 µM
- experimental-details: Neurotoxicity assay, cell viability by Neutral Red method
- Type: cell-based, human
- measurement-setup: human, SH-SY5Y neuroblastoma cells
endpoint-label: viability at 24 h, 10 µM (%)

compound="O=CNC1CC(c2ccc([N+](=O)[O-])cc2)Nc2c1ccc1cccnc21 (stereo not drawn)" endpoint_label="viability at 24 h, 10 µM" reading_unit=% result_number=116
compound="COc1ccc(C2CC(NC=O)c3ccc4cccnc4c3N2)cc1 (stereo not drawn)" endpoint_label="viability at 24 h, 10 µM" reading_unit=% result_number=119
compound="O=CNC1CC(c2ccncc2)Nc2c1ccc1cccnc21 (stereo not drawn)" endpoint_label="viability at 24 h, 10 µM" reading_unit=% result_number=132
